Target: human PLK4 (Homo sapiens (Human))
Test: PLK4 inhibition assay (indirect ELISA)
Assay type: biochemical
Conditions: read-out: PLK4 IC50 Ranges
pIC50: −log10 of the molar value. Where a name gives a salt, the structure may show the parent alone.
# reported pIC50; entries follow

Recorded pIC50, per entry:
compound | pIC50
COc1ccc2c(c1)[C@]1(C[C@H]1c1ccc3c(-c4cccc(CCO)c4)n[nH]c3c1)C(=O)N2 (relative stereo) | > 7.00
CN1C(=O)[C@@]2(C[C@H]2c2ccc3c(/C=C/c4ccc(CN5CCOCC5)cc4)n[nH]c3c2)c2ccccc21 (relative stereo) [Example A87, 2,2,2-trifluoroacetate] | > 7.00
CN1C(=O)[C@@]2(C[C@H]2c2ccc3c(-c4ccc(N5CCNCC5)cc4)n[nH]c3c2)c2ccccc21 (relative stereo) [Example A88, 2,2,2-trifluoroacetate] | 6.00 to 7.00
COc1ccc2c(c1)[C@]1(C[C@H]1c1ccc3c(-c4ccc(N5CC[C@H](N(C)C)C5)cc4)n[nH]c3c1)C(=O)N2 [Example A128, 2,2,2-trifluoroacetate] | > 7.00
CN1CCN(c2ccc(/C=C/c3n[nH]c4cc([C@@H]5C[C@@]56C(=O)N(C)c5ccccc56)ccc34)cn2)CC1 [Example A110, acetate] | > 7.00

Here is the next item to consider.
I am curious: what pIC50 value has been reported for CN1CCc2cc(/C=C/c3n[nH]c4cc([C@@H]5C[C@@]56C(=O)Nc5ccccc56)ccc34)ccc2C1 [Example A74, 2,2,2-trifluoroacetate salt] ?
> 7.00

----------
Molecular target: Aurora B (Homo sapiens (Human))
Sequence (Q96GD4 whole entry): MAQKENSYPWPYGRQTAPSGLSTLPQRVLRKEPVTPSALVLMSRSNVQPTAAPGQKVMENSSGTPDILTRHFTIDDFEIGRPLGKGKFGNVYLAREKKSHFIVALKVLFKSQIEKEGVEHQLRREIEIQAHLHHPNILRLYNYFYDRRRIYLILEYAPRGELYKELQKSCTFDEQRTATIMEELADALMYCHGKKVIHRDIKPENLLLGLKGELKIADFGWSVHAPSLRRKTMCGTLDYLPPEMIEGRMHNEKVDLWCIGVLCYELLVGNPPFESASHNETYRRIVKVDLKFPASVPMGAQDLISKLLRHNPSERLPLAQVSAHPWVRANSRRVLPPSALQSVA
Structures can show the parent of a compound that is named as a salt.
readout-name: IC50

Recorded IC50, per entry:
molecule | readout-name | measured-value
N#Cc1ccc(/C=C/c2n[nH]c3cc([C@@H]4C[C@@]45C(=O)Nc4ccccc45)ccc23)cc1 (relative stereo) [Example A54] | IC50 | 100 to 1000 nM
COc1ccc2c(c1)[C@]1(C[C@H]1c1ccc3c(/C=C/c4ccc(CN5CCCOCC5)cc4)n[nH]c3c1)C(=O)N2 [Example A73, 2,2,2-trifluoroacetate salt] | IC50 | < 100 nM
CCc1ccc2c(c1)[C@]1(C[C@H]1c1ccc3c(-c4cccc(CN5CCOCC5)c4)n[nH]c3c1)C(=O)N2 (relative stereo) [Example A141, 2,2,2-trifluoroacetate] | IC50 | > 1000 nM
CCc1ccc2c(c1)[C@]1(C[C@H]1c1ccc3c(-c4ccc(N5CCN(C)CC5)cc4)n[nH]c3c1)C(=O)N2 (relative stereo) [Example A142, 2,2,2-trifluoroacetate] | IC50 | < 100 nM

I am curious: what IC50 value has been reported for CN1CCc2ccc(/C=C/c3n[nH]c4cc([C@@H]5C[C@@]56C(=O)Nc5ccccc56)ccc34)cc2C1 [Example A65, 2,2,2-trifluoroacetate salt] ?
< 100 nM

----------
Target: human PLK4 (Homo sapiens (Human), UniProt O00444)
Sequence (O00444 1-391): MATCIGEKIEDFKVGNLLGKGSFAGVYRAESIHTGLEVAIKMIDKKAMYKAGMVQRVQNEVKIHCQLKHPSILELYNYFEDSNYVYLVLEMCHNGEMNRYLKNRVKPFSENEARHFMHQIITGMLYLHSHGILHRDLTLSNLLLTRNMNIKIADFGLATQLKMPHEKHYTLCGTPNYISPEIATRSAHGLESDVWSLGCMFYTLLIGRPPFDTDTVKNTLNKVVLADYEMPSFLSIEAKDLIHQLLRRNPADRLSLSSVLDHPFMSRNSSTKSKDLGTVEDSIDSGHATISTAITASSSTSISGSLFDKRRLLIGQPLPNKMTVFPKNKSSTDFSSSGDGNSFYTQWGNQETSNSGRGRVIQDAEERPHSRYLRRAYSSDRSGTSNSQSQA
Test: PLK4 inhibition assay (indirect ELISA)
Format: biochemical
Details: read-out: PLK4 IC50 Ranges
Counter-ions that a name gives are not always drawn.
# reported IC50; entries follow

Recorded IC50, per entry:
molecule | assay-target | IC50
COc1ccc2c(c1)[C@]1(C[C@H]1c1ccc3c(C#Cc4cccnc4)n[nH]c3c1)C(=O)N2 (relative stereo) | human PLK4 (Homo sapiens (Human), UniProt O00444) | < 0.1 µM
COc1ccc2c(c1)[C@]1(C[C@H]1c1ccc3c(-c4ccc(N5C[C@@H](C)N[C@@H](C)C5)cc4)n[nH]c3c1)C(=O)N2 [Example A126, 2,2,2-trifluoroacetate] | human PLK4 (Homo sapiens (Human), UniProt O00444) | < 0.1 µM

Here is the next item to consider.
I am curious: what IC50 value has been reported for COc1ccc2c(c1)[C@]1(C[C@H]1c1ccc3c(-c4ccc(OCCN(C)C)cc4)n[nH]c3c1)C(=O)N2 [Example A69, 2,2,2-trifluoroacetate salt] ?
< 0.1 µM

Provenance of the data: patent US9907800B2
